Ref: the OPERA property sets (Mansouri et al. 2018)

Assignment: determine reported logP for the given compounds.
Enter a number only.

For the compound Clc1cc2c(Cl)ccc(Cl)c2cc1Cl , give its reported logP.
5.81

Look up and state reported logP for CCCC(=NOCC)C1=C(O)CC(CC(C)SCC)CC1=O (stereo not given)
4.38

Tell me measured logP for CC1=CCC(C(C)(C)O)CC1 (stereo not given) please.
2.98

Let me know recorded logP for Cc1cccc2c1Cc1ccccc1-2 , thanks.
4.97

Retrieve logP measured for CC(=O)OCN1C(=O)c2ccccc2C1=O and print it.
1.15

Let me know recorded logP for CCCCNC(=O)CCC(NS(=O)(=O)c1ccc(C)cc1)C(=O)O (stereo not given) , thanks.
0

Give the measured logP for O=C(O)C(c1ccc(Cl)cc1)c1ccc(Cl)cc1
4.64

Output logP of CC(C)NC1=NC(=O)C(=Cc2ccc([N+](=O)[O-])o2)S1
1.29

Indicate its recorded logP; the compound in question is NS(=O)(=O)c1nc2ccc([N+](=O)[O-])cc2s1
1.36

// fetch logP given entry CNS(=O)(=O)c1ccc(C)cc1
1.28

Read the entry N#CC(C#N)=Cc1ccc(Br)o1 and write its reported logP.
2.16

Fill in reported logP for this entry: CSCCCOc1ccc([N+](=O)[O-])cc1
3.24

Give reported logP value for Cc1c(CNc2ccc(Cl)cc2)cnc2nc(N)nc(N)c12
2.03

Quick one: give measured logP for CCOCCn1cnc2c(=N)n(C)c(=O)[nH]c21
-0.4

Please indicate logP recorded for Nc1ccc2[nH]ncc2c1
0.65

Give me measured logP, please, for this compound: COC(=O)C(C)Oc1ccc(Oc2ccc(Cl)cc2Cl)cc1 (stereo not given)
4.62

Identify logP associated with the compound Clc1ccc2ccc(Cl)cc2c1
4.81

Give the reported value of logP for this record: COP(=S)(OC)Oc1c(Cl)cccc1C#N
3.58

Entry O=[N+]([O-])c1ccc(Oc2c(Cl)cc(Cl)cc2Cl)cc1 needs its logP filled in; supply it.
4.97

Tell me logP reported for COc1cc(C(=O)NCc2ccc(OCCN(C)C)cc2)cc(OC)c1OC
2.29

Read off the recorded logP for O=P(N1CCCC1)(N1CCCC1)N1CCCC1
1.67

Please report logP for the following compound: N[C@@H]1[C@H]2CN(c3nc4c(cc3F)c(=O)c(C(=O)O)cn4-c3ccc(F)cc3F)C[C@@H]12
0.31

Respond only with logP recorded for O=C(O)c1ccccc1Nc1cccc(Cl)c1
5.43

Indicate its recorded logP; the compound in question is CCCCOCCOCCCC
2.48

Give the value of logP reported for the following: CCNC(=O)CNC(=O)c1ccccc1
0.58

Determine its reported logP: CCN(CC)P(=O)(N(CC)CC)N(CC)CC
2.53

Specify reported logP for the compound shown: N#CCCN(N)c1nc2ccccc2o1
0.9

Give the value of logP reported for the following: CCCCC(C)=NNC(N)=Nc1ccccc1
2.05

Please give the documented logP of COc1ccc(Cl)c(Cl)c1Cl
3.74

Return logP for the following compound: ClCCCBr
2.18

Quick one: give measured logP for Cc1cc(Cl)ccc1OC(C)C(=O)O (stereo not given)
3.13

Give a short answer stating reported logP for CC(C)c1ccc2c(c1)CC[C@H]1[C@](C)(C(=O)O)CCC[C@]21C .
4.8

State its logP for this compound: COC(=O)c1ccccc1S(N)(=O)=O
0.01

Output logP of CCn1cc(C(=O)NC(C(=O)OC)C(C)C)c(=O)c2ccc(C)nc21 (stereo not given)
3.61

Tell me its logP given COc1ccc(CNC(=O)C(=O)c2c[nH]c3ccc([N+](=O)[O-])cc23)cc1 as the entry.
2.17

Retrieve logP measured for CCCN(CCC)C1COc2ccc(O)cc2C1 (stereo not given) and print it.
3.19

Give the measured logP for OCc1c(Cl)cccc1Cl
2.02

Consider the compound CNCCC=C1c2ccccc2CCc2ccccc21 . State its measured logP.
4.51

Identify the reported logP for the following entry. CCCCCCC(C)=O
2.37

Specify measured logP for O=C(Nc1ccc(Cl)cc1)c1cccc([N+](=O)[O-])c1O .
2.16

Tell me measured logP for COc1ccc(C=O)cc1OC please.
1.22

Report measured logP; entry is CC(C)NCC(O)c1ccc(NS(C)(=O)=O)cc1 (stereo not given)
0.24

Dear colleague, please send me the reported logP for COc1c(Cl)c(Cl)c(Cl)c(Cl)c1Cl when you can.
5.45

Answer with reported logP of CCCC(=O)Oc1c(Br)cc(C#N)cc1Br
3.94

Please report logP for the following compound: CN1CCN(Cc2cccc(COc3ccccc3)c2)CC1
3.05

Assign logP to the following record: CCN(CC)CCCC(C)N=c1cc2n(-c3ccc(Cl)cc3)c3ccccc3nc-2cc1Nc1ccc(Cl)cc1 (stereo not given)
7.92

Give the reported logP for this compound. COc1c(Cl)cc(Cl)c(Cl)c1Cl
4.75

Kindly indicate its recorded logP. Item: O=[N+]([O-])c1ccc2c(c1)Cc1ccccc1-2
3.37

Supply recorded logP for c1ccc2cc3c(cc2c1)-c1cccc2cccc-3c12 here.
6.11

Consider the compound COc1ccc(Cn2cncn2)cc1 . State its measured logP.
1.1

Provide one value: measured logP of Cc1ccc(Cl)cc1[N+](=O)[O-]
3.05

Give the value of logP reported for the following: CC(C)c1ccccc1-c1ccccc1
5.2

Quote logP reported for CC(CCC(=O)NCC(=O)O)C1CCC2C3CCC4CC(O)CCC4(C)C3CC(O)C12C (stereo not given) please.
2.25

Using the record for N=C(N)NN=Cc1ccc(Cl)cc1 , state its measured logP.
0.96

Annotate the compound COc1cc(Cl)c(Cl)c(Cl)c1O with its measured logP.
3.72
